- System: DU-145 prostate
Bench note: report the call from yes (1) for active, no (0) for inactive

Q) What call does the record list for `CC(=O)c1c(CBr)n([O-])c2ccccc2[n+]1=O` ?
A) no (0)

Others:
Q) I'd appreciate the recorded outcome for `O=C(N/N=C\c1cc(Br)ccc1O)c1ccncc1` from this test.
A) no (0)

Q) Per the assay record, what outcome was assigned to `CCN(CC)CCOc1ccc(/C(=C(\C)c2ccc(F)c(OC)c2)c2ccc(Cl)cc2)cc1` ?
A) no (0)

Q) Identify the outcome logged in this assay for the molecule shown: `COc1cc2cn3c4ccc(O)cc4[nH]c(=O)c3c2cc1OC`
A) yes (1)

Q) Any idea what this test logged for `OCCCCC#Cc1ccccc1C#Cc1cccc(O)c1` ?
A) no (0)

Q) Which outcome was assigned to `O=C(CCCN1CC=C(n2c(=O)[nH]c3ccccc32)CC1)c1ccc(F)cc1` in this test?
A) no (0)

Q) Hi, sorry to bother you, what did the test record for `CN(C)c1ccc2nc3ccc(=O)cc-3sc2c1` ?
A) no (0)
